- ASSAY_EXPLANATION: Viability qHTS for spleen associated tyrosine kinase inhibitor (SYKi) drug resistant MV4-11 cells (AID 1963824); also: nearly all actives have a fitted effect of over 35% in size
- EXPERIMENTAL_CONTEXT: SYKi-resistant MV4-11 viability, CellTiter-Glo, 72 h; series mostly up to 45 µM
Records with an inconclusive call do not appear. Calls of active or inactive are those of the source. Calls follow the shape of the dose curve; as a rule, active = well fitted cell-killing curve with a large enough effect; inconclusive = small, poorly fitted or top-dose-only effect, or effect the other way; inactive = no such curve, though single readings can be large or run the other way.
Outcomes: active, inactive

{"columns": ["COMPOUND", "CLASSIFICATION"],
 "data": [
  ["O=C(/C=C/c1ccccc1)OC[C@H]1O[C@@H](OC(=O)c2cc(O)c(O)c(O)c2)[C@H](O)[C@@H](O)[C@@H]1O", "inactive"],
  ["CO[C@H]1/C=C\\C=C(\\C)C(=O)NC2=CC(=O)C(NCCN(C)C)=C(C[C@@H](C)C[C@H](OC)[C@H](O)[C@@H](C)/C=C(/C)[C@@H]1OC(N)=O)C2=O", "active"],
  ["O=S(=O)(Nc1ccc(-c2cccnc2)c2cccnc12)c1cccc(C(F)(F)F)c1", "active"],
  ["CC(=O)O[C@H]1[C@@H](O)[C@H](O[C@H]2[C@@H]3C=CO[C@@H](O[C@H]4O[C@@H](CO)[C@H](O)[C@@H](O)[C@@H]4O)[C@@H]3[C@@]3(CO)O[C@@H]23)O[C@@H](C)[C@@H]1OC(=O)/C=C/c1ccccc1", "inactive"],
  ["CC(O)/C=C/C1C(C)C(O[C@@H]2O[C@H](CO)[C@@H](O)[C@H](O)[C@H]2O)C(O)CC1(C)C (stereo partly specified)", "inactive"],
  ["Nc1ncnc2n[nH]c(Nc3ccc(F)cc3)c12", "active"],
  ["COC(=O)C1=COC(OC2OC(CO)C(O)C(O)C2O)C2C(C)C(OC(=O)/C=C/c3ccc(O)cc3)C(O)C12 (stereo unspecified)", "inactive"],
  ["CNc1nc(-c2ccc3c(N)n[nH]c3c2)cc(N2C[C@@H](C(=O)NC3CCCCC3)CC[C@H]2C)n1", "active"],
  ["OCCc1ccc(O[C@@H]2O[C@H](CO)[C@@H](O)[C@H](O)[C@H]2O)c(O)c1", "inactive"],
  ["C[C@H]1O[C@@H](O[C@H]2CC[C@@]3(C)[C@H](CC[C@@H]4[C@@H]3C[C@@H](O)[C@]3(C)[C@@H](C5=CC(=O)OC5)CC[C@]43O)C2)C[C@H](O)[C@@H]1O[C@H]1C[C@H](O)[C@H](O[C@H]2C[C@H](O)[C@H](O[C@@H]3O[C@H](CO)[C@@H](O)[C@H](O)[C@H]3O)[C@@H](C)O2)[C@@H](C)O1", "active"],
  ["CCCS(=O)(=O)c1nc(NC2CC2)cc(-c2ccc3c(ccn3C3CC(C)(C)NC(C)(C)C3)c2)n1", "active"],
  ["C=C1C(=O)O[C@H]2C[C@H](C)C(/C=C/C(C)=O)=CC[C@H]12", "active"],
  ["COc1ccc(-c2oc3c(CC=C(C)C)c(O)cc(O)c3c(=O)c2O)cc1", "active"],
  ["C/C=C(\\C)C(=O)O[C@H]1C=CC(=O)O[C@H]1/C=C/[C@H](O)[C@@H](C)O", "active"],
  ["C=C1C(=O)O[C@H]2C1CCC(C)=C1C(=O)C=C(C)[C@@]12O (stereo partly specified)", "active"],
  ["O[C@@](Cc1ncc(CC2(C(F)(F)F)CC2)[nH]1)(c1ccc(-n2cccn2)cc1)C(F)(F)F", "active"],
  ["CC1CCC2(C(=O)O)CCC3(C)C(=CCC4C5(C)CCC(O)C(C)(CO)C5CCC43C)C2C1(C)O (stereo unspecified)", "inactive"],
  ["CN1CCN(c2cc3c(nn2)Oc2ccccc2N3C)CC1", "inactive"],
  ["NC(=O)N1CCC(CC(=O)N2CCC(C3c4ncc(Br)cc4CCc4cc(Cl)cc(Br)c43)CC2)CC1 (stereo unspecified)", "active"],
  ["COc1c(C)c2c(c(O)c1C/C=C(\\C)CC/C=C(\\C)CCC(=O)O)C(=O)OC2", "inactive"],
  ["NCCCC[C@H](N[C@@H](CCc1ccccc1)C(=O)O)C(=O)N1CCC[C@H]1C(=O)O", "inactive"]
]}
